# study target: BaF3 EML4-ALK (Homo sapiens, UniProt Q9UM73)
# Construct: The EML4-ALK gene (variant 1) was synthesized at GenScript and cloned into pCDH-CMV-MCS-EF1-Puro plasmid (System Biosciences, Inc); fused on or other part: EML4 N-terminal part (variant 1: exons 1-13, with the coiled-coil that oligomerises the fusion) fused to the intracellular part of ALK, which contains the kinase domain; Q9HC35 (Echinoderm microtubule-associated protein-like 4)
# Sequence (Q9UM73 whole entry, stated change not applied, the tested form may be a part): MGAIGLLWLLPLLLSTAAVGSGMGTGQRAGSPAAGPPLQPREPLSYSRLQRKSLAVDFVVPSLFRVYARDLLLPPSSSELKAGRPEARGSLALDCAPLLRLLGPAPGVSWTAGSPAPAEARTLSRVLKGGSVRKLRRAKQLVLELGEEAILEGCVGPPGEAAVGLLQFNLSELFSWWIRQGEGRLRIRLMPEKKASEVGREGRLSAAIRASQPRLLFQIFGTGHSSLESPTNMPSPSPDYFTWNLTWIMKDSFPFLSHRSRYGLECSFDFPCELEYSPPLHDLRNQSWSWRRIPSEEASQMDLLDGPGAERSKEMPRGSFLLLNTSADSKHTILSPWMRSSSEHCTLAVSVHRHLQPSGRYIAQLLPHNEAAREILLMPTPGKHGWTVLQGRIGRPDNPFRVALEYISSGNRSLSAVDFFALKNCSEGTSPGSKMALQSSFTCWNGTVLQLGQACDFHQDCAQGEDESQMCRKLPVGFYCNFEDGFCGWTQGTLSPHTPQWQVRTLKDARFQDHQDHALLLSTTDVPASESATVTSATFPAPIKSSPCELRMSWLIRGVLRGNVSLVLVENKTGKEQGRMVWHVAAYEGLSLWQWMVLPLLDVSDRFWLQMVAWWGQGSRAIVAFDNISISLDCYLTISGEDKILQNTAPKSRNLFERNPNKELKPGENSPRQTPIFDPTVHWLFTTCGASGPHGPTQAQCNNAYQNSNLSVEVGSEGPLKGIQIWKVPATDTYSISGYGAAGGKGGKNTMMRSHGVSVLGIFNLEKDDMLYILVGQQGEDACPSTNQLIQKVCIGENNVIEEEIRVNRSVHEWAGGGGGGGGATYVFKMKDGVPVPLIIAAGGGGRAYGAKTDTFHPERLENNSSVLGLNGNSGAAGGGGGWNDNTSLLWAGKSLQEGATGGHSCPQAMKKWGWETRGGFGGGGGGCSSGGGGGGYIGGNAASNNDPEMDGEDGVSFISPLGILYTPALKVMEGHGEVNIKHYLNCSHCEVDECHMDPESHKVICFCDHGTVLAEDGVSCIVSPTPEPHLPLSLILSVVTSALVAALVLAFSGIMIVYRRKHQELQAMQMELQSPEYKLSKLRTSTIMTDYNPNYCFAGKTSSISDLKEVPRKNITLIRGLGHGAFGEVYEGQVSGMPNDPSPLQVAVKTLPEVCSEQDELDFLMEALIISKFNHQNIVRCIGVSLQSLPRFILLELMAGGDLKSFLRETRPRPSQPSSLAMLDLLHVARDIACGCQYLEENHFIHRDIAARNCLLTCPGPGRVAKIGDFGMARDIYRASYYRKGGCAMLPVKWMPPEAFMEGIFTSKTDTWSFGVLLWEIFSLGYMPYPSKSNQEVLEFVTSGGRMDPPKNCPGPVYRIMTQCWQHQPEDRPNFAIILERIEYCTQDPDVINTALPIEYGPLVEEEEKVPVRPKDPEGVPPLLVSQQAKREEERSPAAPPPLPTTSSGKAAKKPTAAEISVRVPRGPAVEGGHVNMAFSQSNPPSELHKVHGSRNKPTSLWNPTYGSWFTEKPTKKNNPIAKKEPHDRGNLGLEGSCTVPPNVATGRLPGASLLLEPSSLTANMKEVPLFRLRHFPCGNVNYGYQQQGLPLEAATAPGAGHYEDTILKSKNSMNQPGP
# protocol description: Cell proliferation assay (CellTiter-Glo)
# Type: cell-based
# condition details: anti-cell proliferation, 72 hours
recorded metric: IC50 (nM)
Return type: number; implicit unit nM.

Please fill in: IC50 reported for C[C@@H]1COc2ncc(F)cc2CN2C[C@@H](O)COc3cn4ncc(c4nc32)C(=O)N1 [Compound 88] = 5000

What the record says about C[C@@H]1COc2cn3ncc4c3nc2N1Cc1cc(F)cnc1OC[C@@H](O)CNC4=O [Compound 54] : IC50 is 661

According to the records, this compound C[C@@H]1COc2cn3ncc4c3nc2N1Cc1cc(F)cnc1OC[C@@H](F)CNC4=O [Compound 78] displays IC50 of 33
